# IC50 values compiled below
- tgt: Small ubiquitin-related modifier 1 (Homo sapiens)
- Sequence (P63165 whole entry): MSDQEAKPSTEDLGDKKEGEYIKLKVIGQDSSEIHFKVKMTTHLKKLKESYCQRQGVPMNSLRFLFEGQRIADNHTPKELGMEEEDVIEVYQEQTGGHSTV
- test_details: SUMO1 protein-protein binding blockers, potency – biochemical, FRET, dose response (AID 624383)
- Type: functional
- measurement_conditions: read-out: IC50_Mean
Active and inactive are the calls of the source.

[
  {
    "structure": "O=C(Nc1ccc(C2=NCCN2)cc1)c1ccc(C(=O)Nc2ccc(C3=NCCN3)cc2)c([N+](=O)[O-])c1",
    "tgt": "Small ubiquitin-related modifier 1 (Homo sapiens)",
    "IC50": "3.28 µM (active)"
  },
  {
    "structure": "CCCc1cc(=O)oc2cc(OCC(=O)Nc3ccc(S(N)(=O)=O)cc3)ccc12",
    "tgt": "Small ubiquitin-related modifier 1 (Homo sapiens)",
    "IC50": "6.44 µM (active)"
  },
  {
    "structure": "N#Cc1nc(-c2ccc(OCc3ccc(Cl)cc3)cc2)oc1N1CCC(C(N)=O)CC1",
    "tgt": "Small ubiquitin-related modifier 1 (Homo sapiens)",
    "IC50": "8.79 µM (active)"
  }
]

Q) Using the record for `Cc1onc(-c2ccccc2)c1C(=O)NNC(=S)NC(=O)c1ccc(F)cc1` , state its measured IC50.
A) 100 µM (inactive)

Q) # return recorded IC50 for input `CCOc1ccc(Nc2ccc(N)c(S(=O)(=O)O)c2)cc1`
A) 11.7 µM (active)

====

- tgt: Cytochrome P450 2C9 (Homo sapiens, UniProt P11712)
- Sequence (P11712 whole entry): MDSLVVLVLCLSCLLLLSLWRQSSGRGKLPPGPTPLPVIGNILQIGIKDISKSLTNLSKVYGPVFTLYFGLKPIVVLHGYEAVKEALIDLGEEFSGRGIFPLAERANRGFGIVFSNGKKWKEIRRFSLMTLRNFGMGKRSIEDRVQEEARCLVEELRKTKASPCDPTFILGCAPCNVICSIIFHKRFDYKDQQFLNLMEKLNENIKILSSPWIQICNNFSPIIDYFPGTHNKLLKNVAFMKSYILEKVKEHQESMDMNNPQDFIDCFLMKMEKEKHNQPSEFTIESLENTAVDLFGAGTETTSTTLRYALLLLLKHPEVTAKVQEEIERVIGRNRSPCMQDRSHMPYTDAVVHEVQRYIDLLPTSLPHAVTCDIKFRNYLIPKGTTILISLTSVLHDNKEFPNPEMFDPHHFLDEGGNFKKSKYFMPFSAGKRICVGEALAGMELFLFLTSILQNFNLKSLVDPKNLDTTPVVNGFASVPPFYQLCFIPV
Reported AC50 is given for each of the following compounds.

[
  {
    "compound": "Cc1ccc(NC(=O)/C(=C\\c2cccnc2)NC(=O)c2ccco2)cc1",
    "observed_measurement": "20 µM (inconclusive)"
  },
  {
    "compound": "CC(C)NC(=O)N1CCCC2(CCN(C(=O)Oc3ccccc3)CC2)C1",
    "observed_measurement": "12.6 µM (inconclusive)"
  },
  {
    "compound": "O=C(Nc1cccc2ncccc12)c1ccc(-c2ccc(Br)cc2)o1",
    "observed_measurement": "0.282 µM (inconclusive)"
  }
]

Q) State, in one line, measured AC50 of `Cc1ccc(O)c(-c2cc(C(F)(F)C(F)F)nc(-c3ccccc3)n2)c1`
A) 7.08 µM (inconclusive)

Q) Identify measured AC50 corresponding to `NS(=O)(=O)c1ccc(/N=N\c2ncccc2O)cc1`
A) 6.31 µM (inconclusive)

Q) Give the measured AC50 for `CCO/C(C)=N/n1c2nc3ccccc3nc2c2c(=O)n(CC(C)C)c(C)nc21`
A) 12.6 µM (inconclusive)

Q) Give AC50 for COc1cc(C2C(C#N)=C(N)N(c3sc4c(c3C#N)CCCC4)C3=C2C(=O)CC(C)(C)C3)cc(OC)c1OC (configuration not stated)
A) 12.6 µM (inconclusive)

====

- tgt: Glyceraldehyde-3-phosphate dehydrogenase (Homo sapiens, UniProt P04406)
- Sequence (P04406 whole entry): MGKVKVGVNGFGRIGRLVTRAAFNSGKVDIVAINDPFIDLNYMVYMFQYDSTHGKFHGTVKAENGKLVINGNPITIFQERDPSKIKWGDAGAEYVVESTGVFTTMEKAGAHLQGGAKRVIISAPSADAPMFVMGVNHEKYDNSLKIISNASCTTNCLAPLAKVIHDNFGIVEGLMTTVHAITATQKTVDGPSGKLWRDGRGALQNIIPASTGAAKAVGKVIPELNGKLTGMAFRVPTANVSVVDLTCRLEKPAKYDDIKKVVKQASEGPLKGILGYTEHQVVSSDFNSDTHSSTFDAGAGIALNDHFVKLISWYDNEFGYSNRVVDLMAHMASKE
Activity calls are given as the source filed them.
// values below are reported IC50

[
  {
    "compound": "Cc1cc(C(=O)CN2C(=O)c3ccccc3S2(=O)=O)c(C)n1CC1CCCO1 (configuration not stated)",
    "IC50": "> 100 µM (not active)"
  },
  {
    "compound": "C[C@@H]1CN(C2=C(Cl)C(=O)N(c3cccc(C(F)(F)F)c3)C2=O)CCN1",
    "IC50": "> 50 µM (inconclusive)"
  },
  {
    "compound": "c1cncc(-c2cnc3ccccc3c2)c1",
    "IC50": "> 100 µM (not active)"
  },
  {
    "compound": "O=C1C(Cl)=C(Cl)C(=O)N1c1cccc(Cl)c1",
    "IC50": "> 100 µM (not active)"
  },
  {
    "compound": "COc1cccc2c1NC(C(=O)O)C1CC=CC21 (configuration not stated)",
    "IC50": "88.9 µM (active)"
  }
]

Q) Report value only: IC50, Glyceraldehyde-3-phosphate dehydrogenase (Homo sapiens, UniProt P04406), `Cc1cccc(N2C(=O)C(Cl)=C(N3CCN(c4ncccn4)CC3)C2=O)c1`
A) > 50 µM (inconclusive)

Q) Provide IC50, recorded with Glyceraldehyde-3-phosphate dehydrogenase (Homo sapiens, UniProt P04406), of `Cn1cnc(-c2cccnc2)c1`
A) > 100 µM (not active)
